Entry source: patent US9526785B2

- PROTOCOL SUMMARY: Tigecycline plasma PK after IV bolus in dogs
- Type: in vivo, Beagle dogs
- DETAILS: female, beagle, dog, plasma, intravenous, 5 mg, Tigecycline Plasma Concentration, 5 min; 5 mg IV in PBS ([…]), SC431; individual dogs
PROPERTY MEASURED: concentration at 5 min (ng/mL)
Field: numeric (ng/mL). Do not append units.

Q: Record request: concentration at 5 min value, item `CN(C)c1cc(NC(=O)CNC(C)(C)C)c(O)c2c1C[C@H]1C[C@H]3[C@H](N(C)C)C(O)=C(C(N)=O)C(=O)[C@@]3(O)C(O)=C1C2=O`
Ans: 336

====

- PROTOCOL SUMMARY: Tigecycline plasma PK and % F after PO enteric-coated capsule in dogs
- Type: in vivo, Beagle dogs
- DETAILS: female, beagle, dog, plasma, po, 45 mg, Tigecycline Plasma Concentration, Time (min) 3.3; PO 45 mg enteric-coated capsule with 500 mg CA and 100 mg LLC, SC430; mean
PROPERTY MEASURED: concentration at […] (ng/mL)
Just the number in ng/mL, nothing appended.

Q: I have this molecule here, `CN(C)c1cc(NC(=O)CNC(C)(C)C)c(O)c2c1C[C@H]1C[C@H]3[C@H](N(C)C)C(O)=C(C(N)=O)C(=O)[C@@]3(O)C(O)=C1C2=O` , and I need its recorded concentration at […].
Ans: 68.7

====

- PROTOCOL SUMMARY: Tigecycline plasma PK and % F after PO enteric-coated capsule in dogs
- Type: in vivo, Beagle dogs
- DETAILS: female, beagle, dog, plasma, po, 30 mg, Tigecycline Plasma Concentration, Time (min) 6.0; PO 30 mg enteric-coated capsule with 500 mg CA and 100 mg LLC, SC430; mean
PROPERTY MEASURED: concentration at 6 min (ng/mL)
Please respond with the number in ng/mL and leave the unit unwritten.

Q: Can you share its concentration at 6 min? I mean this compound: `CN(C)c1cc(NC(=O)CNC(C)(C)C)c(O)c2c1C[C@H]1C[C@H]3[C@H](N(C)C)C(O)=C(C(N)=O)C(=O)[C@@]3(O)C(O)=C1C2=O`
Ans: 21.2

====

- PROTOCOL SUMMARY: Tigecycline plasma PK and % F after PO enteric-coated capsule in dogs
- Assay type: in vivo, Beagle dogs
- DETAILS: female, beagle, dog, plasma, po, 30 mg, 30 mg Unformulated enteric coated capsule, Study 2 (SC430); read-out: % F
PROPERTY MEASURED: bioavailability (%)
Answer in %, number only, no unit symbol.

Q: Can you share its bioavailability? I mean this compound: CN(C)c1cc(NC(=O)CNC(C)(C)C)c(O)c2c1C[C@H]1C[C@H]3[C@H](N(C)C)C(O)=C(C(N)=O)C(=O)[C@@]3(O)C(O)=C1C2=O [Tigecycline]
Ans: 0

====

- PROTOCOL SUMMARY: Tigecycline plasma PK and % F after intraduodenal (ID) injection in anesthetized rats
- Assay type: in vivo, Sprague-Dawley Rats
- DETAILS: female, Sprague-Dawley, rat, plasma, other: intraduodenal injection, 9 mg/kg, ID, PBS, 9.0 mg/kg (RA853); suspected injection site leakage; read-out: Cmax, one animal not included in the mean
PROPERTY MEASURED: Cmax

Q: Value lookup for Cmax; key = `CN(C)c1cc(NC(=O)CNC(C)(C)C)c(O)c2c1C[C@H]1C[C@H]3[C@H](N(C)C)C(O)=C(C(N)=O)C(=O)[C@@]3(O)C(O)=C1C2=O`
Ans: 1110 ng/mL

====

- PROTOCOL SUMMARY: Tigecycline plasma PK and % F after intraduodenal (ID) injection in anesthetized rats
- Format: in vivo, Sprague-Dawley Rats
- DETAILS: female, Sprague-Dawley, rat, plasma, 4.8 mg/kg, RA861, ID, 400 mM CA alone, mean dose 4.8 mg/kg; read-out: Cmax, mean
- Experimental: Animals weighed approximately 250 g at the time of testing. Rats were fasted overnight (with water available), prior to dosing. Intravenous (IV) doses were administered as a bolus injection into the left carotid […] at a dose volume of 1.6 mL/kg. […] Female rats were maintained in groups of 3 per polycarbonate (or equivalent) shoebox cage with fresh wood chip bedding at 20-22° C. under a 12 hour on/off light:dark cycle. […] Animal weights were determined post-anesthesia induction. […]
PROPERTY MEASURED: Cmax (ng/mL)
Lab book: enter the figure in ng/mL, no units written.

Q: Can you look up the measured Cmax of CN(C)c1cc(NC(=O)CNC(C)(C)C)c(O)c2c1C[C@H]1C[C@H]3[C@H](N(C)C)C(O)=C(C(N)=O)C(=O)[C@@]3(O)C(O)=C1C2=O [Tigecycline] for me?
Ans: 11.7

====

- PROTOCOL SUMMARY: Tigecycline plasma PK and % F after intraduodenal (ID) injection in anesthetized rats
- Format: in vivo, Sprague-Dawley Rats
- DETAILS: female, Sprague-Dawley, rat, plasma, other: intraduodenal bolus injection, 4.8 mg/kg, pH 3.5, ID, 100 mM CA (pH 3.5), 26 mM LLC, 4.8 mg/kg (RA851); 30 min
PROPERTY MEASURED: concentration at 30 min (ng/mL)
Give the number; ng/mL is assumed, so skip it.

Q: Field request: concentration at 30 min | item: `CN(C)c1cc(NC(=O)CNC(C)(C)C)c(O)c2c1C[C@H]1C[C@H]3[C@H](N(C)C)C(O)=C(C(N)=O)C(=O)[C@@]3(O)C(O)=C1C2=O`
Ans: 601

====

- PROTOCOL SUMMARY: Tigecycline plasma PK and % F after PO enteric-coated capsule in dogs
- Assay type: in vivo, Beagle dogs
- DETAILS: female, beagle, dog, plasma, po, 15 mg, Tigecycline Plasma Concentration, 240 min; PO 15 mg enteric-coated capsule with 500 mg CA and 100 mg LLC, SC424; mean
- Protocol: Adult beagle dogs weighing approximately 9 to 15 kg were used in the study. […] Room temperature was set to be maintained between approximately 20±5° C. Relative humidity was monitored but not controlled. […] The unknown concentration in dog plasma samples was determined by interpolation of the peak area ratios of analyte:internal standard versus the ratio of their nominal concentrations into the regression line obtained from calibration standards spiked in pooled dog plasma. […]
PROPERTY MEASURED: concentration at 240 min (ng/mL)
Note: unit ng/mL is implicit; provide only the numeric part.

Q: What value of concentration at 240 min has been reported for the following molecule? `CN(C)c1cc(NC(=O)CNC(C)(C)C)c(O)c2c1C[C@H]1C[C@H]3[C@H](N(C)C)C(O)=C(C(N)=O)C(=O)[C@@]3(O)C(O)=C1C2=O`
Ans: 35.2

====

- PROTOCOL SUMMARY: Tigecycline plasma PK and % F after PO enteric-coated capsule in dogs
- Type: in vivo, Beagle dogs
- DETAILS: female, beagle, dog, plasma, po, 45 mg, PO 45 mg enteric-coated capsule with 500 mg CA and 100 mg LLC (SC430); read-out: AUC(0-t), mean
PROPERTY MEASURED: AUC(0-t) (ng·h/mL)
Supply the numeric figure in ng·h/mL, leaving out any unit text.

Q: What value of AUC(0-t) has been recorded for this entry: `CN(C)c1cc(NC(=O)CNC(C)(C)C)c(O)c2c1C[C@H]1C[C@H]3[C@H](N(C)C)C(O)=C(C(N)=O)C(=O)[C@@]3(O)C(O)=C1C2=O`
Ans: 574

====

- PROTOCOL SUMMARY: Tigecycline plasma PK and % F after PO enteric-coated capsule in dogs
- Format: in vivo, Beagle dogs
- DETAILS: female, beagle, dog, plasma, po, 15 mg, PO 15 mg ([…]) enteric-coated capsule with 500 mg CA and 100 mg LLC (SC424); read-out: AUC(0-t), mean
PROPERTY MEASURED: AUC(0-t) (ng·h/mL)
Field: numeric (ng·h/mL). Do not append units.

Q: Please look up its AUC(0-t): CN(C)c1cc(NC(=O)CNC(C)(C)C)c(O)c2c1C[C@H]1C[C@H]3[C@H](N(C)C)C(O)=C(C(N)=O)C(=O)[C@@]3(O)C(O)=C1C2=O [Tigecycline]
Ans: 133

====

- PROTOCOL SUMMARY: Tigecycline plasma PK and % F after intraduodenal (ID) injection in anesthetized rats
- Type: in vivo, Sprague-Dawley Rats
- DETAILS: female, Sprague-Dawley, rat, plasma, […], RA869, ID, 400 mM CA/26 mM LLC
PROPERTY MEASURED: Tmax (min)
The answer is to be given in min; state only the numeric part.

Q: Requested read-out: Tmax. Entry: CN(C)c1cc(NC(=O)CNC(C)(C)C)c(O)c2c1C[C@H]1C[C@H]3[C@H](N(C)C)C(O)=C(C(N)=O)C(=O)[C@@]3(O)C(O)=C1C2=O [Tigecycline]
Ans: 15

====

- PROTOCOL SUMMARY: Tigecycline plasma PK and % F after PO enteric-coated capsule in dogs
- Assay type: in vivo, Beagle dogs
- DETAILS: female, beagle, dog, plasma, po, 45 mg, Tigecycline Plasma Concentration, Time (min) 2.0; PO 45 mg enteric-coated capsule with 500 mg CA and 100 mg LLC, SC430; mean
PROPERTY MEASURED: concentration at 2 min (ng/mL)
Provide the reading as a plain figure in ng/mL.

Q: Look at this molecule and give its reported concentration at 2 min. `CN(C)c1cc(NC(=O)CNC(C)(C)C)c(O)c2c1C[C@H]1C[C@H]3[C@H](N(C)C)C(O)=C(C(N)=O)C(=O)[C@@]3(O)C(O)=C1C2=O`
Ans: 144
